Test: Tmax in beagle dog at 5 mg/kg, po
Format: ADME, organism-based, Canis lupus familiaris
Set-up: dose 5 mg/kg, route oral
Conditions: in vivo
Property Measured: Tmax (h)
Give just the number in h; leave the unit off.

Which Tmax value is on record for C1=C2COC/C=C/COCc3cc(ccc3OCCN3CCCC3)Nc3nccc(n3)C(=C1)O2 (mixture of isomers) [CT-1578] ?
3

* * *

Assay: Tmax in Wistar rat at 50 mg/kg, po
Type: ADME, organism-based
Design: dose 50 mg/kg, route oral
Conditions: in vivo
Property Measured: Tmax (h)
The figure you give is taken to be in h; do not add the unit.

Consider the compound shown here: C1=C2COC/C=C/COCc3cc(ccc3OCCN3CCCC3)Nc3nccc(n3)C(=C1)O2 (mixture of isomers) What is its recorded Tmax?
2.3
